# Test system: Tov-21-G
# Assay Summary: Primary qHTS to identify gynecologic anti-cancer compounds using libraries of approved drugs and bioactive compounds (AID 1345084); further: nearly all actives have a fitted effect of over 55% in size
# Assay Context: Gynecologic cancer cell panel viability, ATPlite luminescence, 48 h; series mostly up to 57.5 µM
Records with an inconclusive call do not appear. Active and inactive are the calls of the source. The call rests on the fitted dose curve; in most records, active means well fitted cell-killing curve with a large enough effect; inconclusive means small, poorly fitted or top-dose-only effect, or effect the other way; inactive means flat fitted curve, though single readings scatter. *1 amine or outer side, *2 acyl side, *3 side chain or, on linkers, in order; H or OH if unused. Where a SMILES comes first, the peptide text is derived from it. Bridges are numbered along the chain shown (N, C = ends). [ ]: non-standard residue; d: D form. The star is where a group is joined. pTerphenylCO(4''-OnC5H11) = CCCCCOc1ccc(-c2ccc(-c3ccc(C(=O)*)cc3)cc2)cc1; Orn(4R-OH,5R-OH) = O=C([C@H](C[C@@H](O)[C@@H](O)N[*:3])N[*:1])[*:2]; hTyr(3S-OH,4S-OH) = N[C@H](C(=O)O)[C@H](O)[C@@H](O)c1ccc(O)cc1; Pro(3S-OH,4S-Me) = C[C@H]1CN[C@H](C(=O)O)[C@H]1O; Hyp = O=C(O)[C@@H]1C[C@@H](O)CN1
Pick one and only one: y for active, n for inactive

// outcome(item) with item = CCOC(=O)CCNc1cc(N2CCc3ccccc3CC2)nc(-c2cccnc2)n1
n

# fetch the recorded call for CCCCCOc1ccc(-c2ccc(-c3ccc(C(=O)N[C@H]4C[C@@H](O)[C@@H](O)NC(=O)[C@@H]5[C@@H](O)[C@@H](C)CN5C(=O)[C@H]([C@@H](C)O)NC(=O)[C@H]([C@H](O)[C@@H](O)c5ccc(O)cc5)NC(=O)[C@@H]5C[C@@H](O)CN5C(=O)[C@H]([C@@H](C)O)NC4=O)cc3)cc2)cc1 ({pTerphenylCO(4''-OnC5H11)}-[Orn(4R-OH,5R-OH)]T[Hyp][hTyr(3S-OH,4S-OH)]T[Pro(3S-OH,4S-Me)]; lactam 1-C) here
n

Look up the recorded call for Cc1ccc(N2CCN(S(=O)(=O)N3CCCCC3)CC2)c(C)c1 in this test.
n

// param item: CC(C)[C@@H](c1ccc(C(F)(F)F)cc1CN(Cc1cc(C(F)(F)F)cc(C(F)(F)F)c1)c1nnn(C)n1)N1CCC(C(=O)O)CC1 ; yields the recorded call
n

Test call for this compound, please: CC[C@@H](C)Nc1cc(C(=O)NC2CC3CC[C@@H](C2)N3c2ccc(C(=O)C3CC3)cn2)c(C)cc1C(N)=O (stereo not given in full)
y

----------
Consider the following molecules; for each one, report its Potency.
# System: CRL-7250
# Assay Summary: Cytotoxic Profiling of Annotated Libraries Using Quantitative High-Throughput Screening (AID 1296008); further: potency means the concentration at half of the fitted maximal effect; nearly all actives have a fitted effect of over 60% in size
# Assay Context: Five cell lines viability, CellTiter-Glo ATP luminescence, 48-72 h
Records with an inconclusive call do not appear. The source made the active and inactive calls. Calls come from the whole dose curve; as a rule, active = well fitted inhibition curve with a large enough effect; inconclusive = small, poorly fitted or top-dose-only effect; inactive = flat fitted curve, though single readings scatter.

Data point: O=C(O)CSc1cc(NS(=O)(=O)c2ccc(Br)cc2)c2ccccc2c1O ; Potency = 23.1 µM (active)

Potency measured on C/C1=C\[C@@H](C)C[C@@H](C)[C@@H](Cc2cnco2)OC(=O)/C(C)=C/[C@@H](C)C[C@@H](C)[C@@H](Cc2cnco2)OC1=O = 2.52 µM (active)

Summary for this molecule, Cn1c(=O)c2c(ncn2Cc2ccc(C(C)(C)C)cc2)n(C)c1=O : Potency is 1.3 µM (active)

The molecule identified as Cc1cc(Nc2nc(-c3ccccc3)nc3ccccc23)n[nH]1 registered its Potency at 5.17 µM (active)

Value of Potency reported for the molecule COC1CC(O[C@H]2CC[C@]3(C)C4CC[C@@]5(C)C(=O)[C@]4(CC[C@@H]3C2)CC[C@@H]5C2=CC(=O)OC2)OC(C)C1OC1OC(COC2OC(CO)C(O)C(O)C2O)C(O)C(O)C1O (stereo partly specified) is 1.55 µM (active)
